# maps each entry to its log10 of EC50 of hC3 cleavage
molecular target: plasma purified human complement protein C3 (human) (UniProt P01024); assay: cell-based or functional assay
Sequence (P01024 23-667, chain 1 of 2): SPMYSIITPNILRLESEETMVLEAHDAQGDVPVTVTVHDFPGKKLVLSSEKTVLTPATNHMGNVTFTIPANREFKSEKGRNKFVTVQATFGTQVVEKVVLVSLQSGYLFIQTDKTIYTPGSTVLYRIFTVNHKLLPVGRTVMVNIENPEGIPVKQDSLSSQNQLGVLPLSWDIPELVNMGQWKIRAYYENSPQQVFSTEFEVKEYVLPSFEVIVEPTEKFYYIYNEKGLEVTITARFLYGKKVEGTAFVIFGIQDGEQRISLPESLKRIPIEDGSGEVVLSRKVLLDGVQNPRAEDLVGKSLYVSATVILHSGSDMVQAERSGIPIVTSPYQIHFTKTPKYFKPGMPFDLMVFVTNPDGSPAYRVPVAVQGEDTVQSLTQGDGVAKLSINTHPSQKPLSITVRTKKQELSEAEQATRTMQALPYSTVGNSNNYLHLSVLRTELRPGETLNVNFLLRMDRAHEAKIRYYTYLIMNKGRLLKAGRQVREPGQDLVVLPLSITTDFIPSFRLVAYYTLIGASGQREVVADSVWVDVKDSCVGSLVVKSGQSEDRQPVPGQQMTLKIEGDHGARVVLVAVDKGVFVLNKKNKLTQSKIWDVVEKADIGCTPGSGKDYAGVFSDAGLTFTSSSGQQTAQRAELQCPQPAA
Sequence (P01024 672-1663, chain 2 of 2): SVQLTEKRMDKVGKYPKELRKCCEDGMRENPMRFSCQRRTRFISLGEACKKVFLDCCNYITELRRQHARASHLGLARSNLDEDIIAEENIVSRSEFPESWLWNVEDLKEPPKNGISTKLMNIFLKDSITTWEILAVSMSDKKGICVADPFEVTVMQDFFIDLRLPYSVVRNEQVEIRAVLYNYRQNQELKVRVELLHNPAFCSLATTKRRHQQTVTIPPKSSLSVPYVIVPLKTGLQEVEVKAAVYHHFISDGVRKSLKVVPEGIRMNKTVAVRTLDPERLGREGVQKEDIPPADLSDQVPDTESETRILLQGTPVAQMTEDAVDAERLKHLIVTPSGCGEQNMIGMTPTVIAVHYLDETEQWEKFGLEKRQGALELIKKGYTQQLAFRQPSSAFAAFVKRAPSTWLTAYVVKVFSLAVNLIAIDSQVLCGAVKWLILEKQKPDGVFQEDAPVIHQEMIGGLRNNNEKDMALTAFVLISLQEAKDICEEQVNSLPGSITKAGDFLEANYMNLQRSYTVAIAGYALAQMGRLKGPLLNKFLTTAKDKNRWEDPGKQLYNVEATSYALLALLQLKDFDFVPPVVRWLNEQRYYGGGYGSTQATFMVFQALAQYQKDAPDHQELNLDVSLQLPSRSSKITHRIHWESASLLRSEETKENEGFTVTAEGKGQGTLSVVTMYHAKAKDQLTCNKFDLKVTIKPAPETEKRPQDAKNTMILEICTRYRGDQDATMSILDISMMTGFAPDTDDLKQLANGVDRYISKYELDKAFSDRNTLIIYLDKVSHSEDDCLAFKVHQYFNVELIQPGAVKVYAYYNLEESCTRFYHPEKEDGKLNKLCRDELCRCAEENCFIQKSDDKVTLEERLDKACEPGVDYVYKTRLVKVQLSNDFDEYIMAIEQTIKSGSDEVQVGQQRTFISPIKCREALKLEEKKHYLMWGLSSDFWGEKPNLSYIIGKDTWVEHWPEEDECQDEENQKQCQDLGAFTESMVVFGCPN
Response schema: value (number) is log10 of EC50 of hC3 cleavage in units of nM.

MTSP-1 Q38H/I41S/D60bT/F60eS/Y60gW/ins97aV/F97D/T98P/F99L/C122S/G151N/Q175L/Q192E (enzyme) VVGGTDADEGEWPWQVSLHALGHGHSCGASLISPNWLVSAAHCYIDTRGSRWSDPTQWTAFLGLHDQSQRSAPGVQERRLKRIISHPFFNDDVPLDYDIALLELEKPAEYSSMVRPISLPDASHVFPAGKAIWVTGWGHTQYGGTNALILQKGEIRVINQTTCENLLPQLITPRMMCVGFLSGGVDSCEGDSGGPLSSVEADGRIFQAGVVSWGDGCAQRNKPGVYTRLPLFRDWIKENTGV :: 0.83
MTSP-1 H40R/I41H/F97D/F99L/C122S/G151N/Q192H/D217K/K224A (enzyme) VVGGTDADEGEWPWQVSLHALGQGRHCGASLISPNWLVSAAHCYIDDRGFRYSDPTQWTAFLGLHDQSQRSAPGVQERRLKRIISHPFFNDDTLDYDIALLELEKPAEYSSMVRPISLPDASHVFPAGKAIWVTGWGHTQYGGTNALILQKGEIRVINQTTCENLLPQQITPRMMCVGFLSGGVDSCHGDSGGPLSSVEADGRIFQAGVVSWGKGCAQRNAPGVYTRLPLFRDWIKENTGV :: 2.14
MTSP-1 Q38H/I41S/D60bT/F60eS/Y60gW/D96K/ins97aA/F97D/T98P/F99L/C122S/G151H/Q175L/Q192D (enzyme) VVGGTDADEGEWPWQVSLHALGHGHSCGASLISPNWLVSAAHCYIDTRGSRWSDPTQWTAFLGLHDQSQRSAPGVQERRLKRIISHPFFNKDAPLDYDIALLELEKPAEYSSMVRPISLPDASHVFPAGKAIWVTGWGHTQYGGTHALILQKGEIRVINQTTCENLLPQLITPRMMCVGFLSGGVDSCDGDSGGPLSSVEADGRIFQAGVVSWGDGCAQRNKPGVYTRLPLFRDWIKENTGV :: 0.85

Inquiry: Item MTSP-1 I41R/F97T/ins97aE/T98G/F99L/C122S/G151N/Q175I/Q192D (enzyme) VVGGTDADEGEWPWQVSLHALGQGHRCGASLISPNWLVSAAHCYIDDRGFRYSDPTQWTAFLGLHDQSQRSAPGVQERRLKRIISHPFFNDTEGLDYDIALLELEKPAEYSSMVRPISLPDASHVFPAGKAIWVTGWGHTQYGGTNALILQKGEIRVINQTTCENLLPQIITPRMMCVGFLSGGVDSCDGDSGGPLSSVEADGRIFQAGVVSWGDGCAQRNKPGVYTRLPLFRDWIKENTGV has what recorded log10 of EC50 of hC3 cleavage?
Reply text: 3.92

Inquiry: Consider the binder MTSP-1 Q38H/I41A/D60bT/F60eH/Y60gW/F97T/ins97aE/T98G/F99L/C122S/G151N/Q175L/Q192D (enzyme) VVGGTDADEGEWPWQVSLHALGHGHACGASLISPNWLVSAAHCYIDTRGHRWSDPTQWTAFLGLHDQSQRSAPGVQERRLKRIISHPFFNDTEGLDYDIALLELEKPAEYSSMVRPISLPDASHVFPAGKAIWVTGWGHTQYGGTNALILQKGEIRVINQTTCENLLPQLITPRMMCVGFLSGGVDSCDGDSGGPLSSVEADGRIFQAGVVSWGDGCAQRNKPGVYTRLPLFRDWIKENTGV and give its measured log10 of EC50 of hC3 cleavage.
Reply text: 0.84
